Test system: SK-MEL-5 melanoma
assay: NCI-60 one-dose screen, 48 h
study_conditions: 10 µM unless noted
Compounds without any hit were thinned out: in the full panel of roughly 83,000, 20% have a hit. Activity calls are given as the source filed them. How the source made its calls: active means growth percent below 10; inactive means the rest.
Give one outcome, nothing more. List: active, inactive

c1ccc2cc3c(Nc4ccc(N5CCOCC5)cc4)ccnc3cc2c1    inactive
FC(F)(F)c1cccc(Nc2nc3ccccc3nc2Nc2cccc(C(F)(F)F)c2)c1    active

Field: next compound
### Prompt Would you mind telling me which call this test gave CCOC(=O)c1ccc(N=Cc2sc(=O)[nH]c2O)cc1 ?
### Response inactive

====

Tested on: HOP-62 NSCLC
assay: NCI-60 one-dose screen, 48 h (100 = growth as untreated, 0 = no growth, -100 = all killed)
study_conditions: 10 µM unless noted
Protocol: Growth inhibition of the HOP-62 human Non-Small Cell Lung tumor cell line is measured as a screen for anti-cancer activity. Cells are grown in 96 well plates and exposed to the test compound for 48 hours. Compounds are tested at a single concentration, which is 10^-5 M for most compounds. The reported endpoint is percent growth (GI% or GIPRCNT), where numbers from 0 - 100% represent growth inhibition, and numbers from -100% - 0 represent cell death. […]
This is part of a sample that, as a whole, favours compounds with a hit. Of some 83,000 tested, about 20% had one in any assay.
Listed here are molecules together with their documented growth.
Output spec: scalar in %, unitless text.

### Prompt Find the recorded growth belonging to COc1cc(/C=C2\CCC/C(=C\c3cc(CN4CCOCC4)c(O)c(OC)c3)C2=O)cc(CN2CCOCC2)c1O and report it.
### Response 46.6

### Prompt Proceed to O=C(CN1C=NC2C(N3CCOCC3)=NC=NC21)c1ccc(Br)cc1 (stereo not drawn)
### Response 103

### Prompt Proceed to NCCNc1nc2ccccc2c2c(=O)c3cc(F)cc(Cl)c3sc12
### Response -51.7
